Protein target, amino acids: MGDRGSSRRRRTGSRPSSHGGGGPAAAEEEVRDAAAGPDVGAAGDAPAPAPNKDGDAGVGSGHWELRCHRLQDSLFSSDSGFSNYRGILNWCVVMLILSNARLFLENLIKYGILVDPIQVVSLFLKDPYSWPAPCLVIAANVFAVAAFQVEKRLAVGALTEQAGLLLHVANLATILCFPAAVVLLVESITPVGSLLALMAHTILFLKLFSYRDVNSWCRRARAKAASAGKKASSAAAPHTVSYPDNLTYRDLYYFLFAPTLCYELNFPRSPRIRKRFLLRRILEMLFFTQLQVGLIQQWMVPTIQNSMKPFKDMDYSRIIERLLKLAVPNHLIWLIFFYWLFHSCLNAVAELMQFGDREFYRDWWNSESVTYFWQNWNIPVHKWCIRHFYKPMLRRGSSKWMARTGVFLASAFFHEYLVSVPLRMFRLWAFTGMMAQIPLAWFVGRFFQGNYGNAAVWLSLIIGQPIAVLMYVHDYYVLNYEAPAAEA
IC50: recorded values
Please respond with the number in µM and leave the unit unwritten.

Observe how each entry below is paired with its result.
CC(C)N(NC(=O)c1ccccc1)C(=O)/C=C/c1cn(CC2CC2)c2ccccc12 = 41.6
CC(C)=CCn1cc(/C=C/C(=O)N(NC(=O)c2ccc(F)cc2)C(C)C)c2ccccc21 = 1.5
CC(C)N(NC(=O)c1ccccc1)C(=O)/C=C/c1cn(C(=O)OC(C)(C)C)c2ccccc12 = 9.6

Query: Look up IC50: CC(C)N(NC(=O)c1ccc(Cl)cc1)C(=O)/C=C/c1cn(C(=O)OC(C)(C)C)c2ccccc12
Result: 8.8

Query: What do you get for Cc1ccc(C(=O)NN(C(=O)/C=C/c2cn(C(=O)OC(C)(C)C)c3ccccc23)C(C)C)cc1 ?
Result: 9.8

Query: What do you get for CC(C)CCn1cc(/C=C/C(=O)N(NC(=O)c2ccc(F)cc2)C(C)C)c2ccccc21 ?
Result: 1

Query: What do you get for CC(C)N(NC(=O)c1ccccc1)C(=O)/C=C/c1cn(Cc2ccccc2)c2ccccc12 ?
Result: 13.6

Query: What do you get for CC(C)N(NC(=O)c1cccc(Br)c1)C(=O)/C=C/c1cn(C(=O)OC(C)(C)C)c2ccccc12 ?
Result: 6.8

Query: What do you get for CC(=O)n1cc(/C=C/C(=O)N(NC(=O)c2ccccc2)C(C)C)c2ccccc21 ?
Result: 65.3

Query: What do you get for CC(C)N(NC(=O)c1ccccc1)C(=O)CCc1c[nH]c2ccccc12 ?
Result: 95.1
